target_under_test: T1, EsCas13d, nuclease-dead (Eubacterium siraeum, UniProt B0MS50, R295A;H300A;R849A;H854A)
T1 sequence: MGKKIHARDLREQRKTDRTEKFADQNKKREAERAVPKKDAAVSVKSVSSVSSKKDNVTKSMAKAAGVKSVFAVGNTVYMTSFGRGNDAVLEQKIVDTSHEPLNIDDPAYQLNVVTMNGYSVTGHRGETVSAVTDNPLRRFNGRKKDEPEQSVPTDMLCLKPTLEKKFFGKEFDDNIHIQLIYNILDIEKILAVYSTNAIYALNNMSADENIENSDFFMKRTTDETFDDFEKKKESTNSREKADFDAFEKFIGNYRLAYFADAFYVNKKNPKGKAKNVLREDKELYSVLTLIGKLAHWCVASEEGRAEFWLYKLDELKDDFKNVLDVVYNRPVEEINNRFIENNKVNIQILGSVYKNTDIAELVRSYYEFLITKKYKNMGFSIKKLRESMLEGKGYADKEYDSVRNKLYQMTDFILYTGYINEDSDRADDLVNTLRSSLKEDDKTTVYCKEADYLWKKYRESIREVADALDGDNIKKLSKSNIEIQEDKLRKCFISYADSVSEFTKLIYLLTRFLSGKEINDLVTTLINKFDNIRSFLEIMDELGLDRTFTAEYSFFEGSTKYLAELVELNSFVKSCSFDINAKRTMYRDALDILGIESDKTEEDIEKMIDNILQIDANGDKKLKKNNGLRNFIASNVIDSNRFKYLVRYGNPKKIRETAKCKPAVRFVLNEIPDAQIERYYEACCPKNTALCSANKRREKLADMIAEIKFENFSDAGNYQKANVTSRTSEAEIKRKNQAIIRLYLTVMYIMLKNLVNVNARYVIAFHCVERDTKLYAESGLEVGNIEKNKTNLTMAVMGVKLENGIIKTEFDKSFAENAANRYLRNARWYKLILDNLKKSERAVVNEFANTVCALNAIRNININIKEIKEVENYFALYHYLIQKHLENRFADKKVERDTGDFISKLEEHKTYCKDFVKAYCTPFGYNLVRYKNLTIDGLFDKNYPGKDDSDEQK
measurement_description: crRNA (strand 1, pre-loaded); Mg2+; 40 mM Tris-HCl pH 7.5, 150 mM NaCl, 6 mM MgCl2, 1 mM DTT, 0.1% Tween-20, 0.2 mg/ml BSA; 25 C; 10 min per concentration, then washed
details: tags: His6-TwinStrep-SUMO cleaved; N-terminal SNAP kept (SNAP-Surface 488); label: 3' end held by stalled T7 RNA polymerase
Recorded Kd by entry
Respond with a number, then the unit of measure.

Worked cases, answers included:
target 1 MT 5'PFS ACG 3'PFS CGA (mixed) RNA 1: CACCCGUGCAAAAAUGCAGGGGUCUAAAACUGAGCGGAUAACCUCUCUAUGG RNA 2: GGGAAUGGAUCCACAUCUACGAAUUCACGCCAUAGAGAGGUUAUCCGCUCACGAAGAUCGGAAGAGCACACGU; 0.028 µM
target 2 MT 5'PFS GGA 3'PFS UGC (mixed) RNA 1: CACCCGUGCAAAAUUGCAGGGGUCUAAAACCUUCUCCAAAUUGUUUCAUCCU RNA 2: GGGAAUGGAUCCACAUCUACGAAUUCGGAAGGAUGAAACAAUUUGGAGAAGUGCAGAUCGGAAGAGCACACGU; 0.0105 µM
target 1 G12U,A16G (mixed) RNA 1: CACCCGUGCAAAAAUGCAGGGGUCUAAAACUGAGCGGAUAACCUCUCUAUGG RNA 2: GGGAAUGGAUCCACAUCUACGAAUUCGUACCAUAGGGAGUUUAUCCGCUCACCGAGAUCGGAAGAGCACACGU; 0.043 µM

// next item, Kd requested
Read the entry target 1 MT 5'PFS UCA 3'PFS UCG (mixed) RNA 1: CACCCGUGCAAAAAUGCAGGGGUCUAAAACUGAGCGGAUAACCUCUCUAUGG RNA 2: GGGAAUGGAUCCACAUCUACGAAUUCUCACCAUAGAGAGGUUAUCCGCUCAUCGAGAUCGGAAGAGCACACGU and write its reported Kd.
0.0315 µM
